Each entry below carries its reported CC50.
Assay: in vitro
Conditions: African green monkey
ENDPOINT: CC50

1) CC12CC3CC(C(=O)N[C@H]4CC[C@@H](N)CC4)(C1)CC(c1ccccc1)(C3)C2.Cl (mixture of isomers) [Example A2] ... 66 µM
2) NC(=O)c1nc(F)c[nH]c1=O [favipiravir, reference compound] ... > 1000 µM
3) C[C@]12CC3CC(C(=O)N[C@H]4CN5CCC4CC5)(C1)C[C@@](c1ccccc1)(C3)C2 [Example B58] ... 25.7 µM
4) C[C@@]12CC3CC(C(=O)N[C@H]4CC[C@@H](N)CC4)(C1)C[C@](c1ccccc1)(C3)C2 [Example C2] ... 21.4 µM
5) C[C@]12CC3CC(C(=O)N[C@H]4CC[C@@H](N)CC4)(C1)C[C@@](c1ccccc1)(C3)C2.Cl [Example B2] ... 67.6 µM
